test system: MDA-MB-468 breast; experiment: NCI tumour cell line growth inhibition, 48 h
Examples of molecules with documented TGI follow.

Solved cases (5 shown):
{"molecule": "CCOC(=O)[C@@H](C)C[C@H](Cc1ccccc1)NC(=O)c1csc([C@@H](C[C@H](C(C)C)N(C)C(=O)[C@@H](NC(=O)[C@H]2CCCCN2C)C(C)(C)C)OC(C)=O)n1", "TGI": "0.0752 µM"}
{"molecule": "Cc1ccc(-c2nc(C(Cl)Cl)n3nc(-c4ccccc4)cc3n2)cc1", "TGI": "0.612 µM"}
{"molecule": "CC(C)(C)c1nc2c(o1)C(=Nc1ccc(F)cc1)c1ccccc1C2=O", "TGI": "> 100 µM"}
{"molecule": "O=c1cc(-c2ccccc2F)[nH]c2cc3c(cc12)OCO3", "TGI": "> 100 µM"}
{"molecule": "Nc1nc(Nc2ccc(OCc3cccc(F)c3)cc2)c2c(n1)[nH]c1ccc(O)cc12", "TGI": "5.36 µM"}

q: Return reported TGI for target or system MDA-MB-468 breast, item CNC(=O)c1cn(C[C@H](F)CCc2ccc(NC(=O)Cc3cc(OC4CC(F)(F)C4)cc(C)n3)nn2)nn1 .
a: > 100 µM

q: Return reported TGI for target or system MDA-MB-468 breast, item CC(=O)n1c(-c2ccc(Cl)cc2)nc2c(c1=O)C(c1ccc(Cl)cc1)c1sc3c(Cl)cccc3c1O2 (centres undefined) .
a: 0.56 µM

q: Return reported TGI for target or system MDA-MB-468 breast, item CC(C)(C)OC(=O)c1ccc(NCc2cc(O)ccc2O)cc1 .
a: 3.45 µM

q: Return reported TGI for target or system MDA-MB-468 breast, item COc1ccc2c(c1)C=CC(C#N)N2C(=O)c1ccccc1 (centres undefined) .
a: > 100 µM

Numbers sourced from PubChem BioAssay (NCI).
